- target.system: 3-oxoacyl-[acyl-carrier-protein] synthase 1 (Escherichia coli K-12, UniProt P0A953)
- Sequence (P0A953 whole entry): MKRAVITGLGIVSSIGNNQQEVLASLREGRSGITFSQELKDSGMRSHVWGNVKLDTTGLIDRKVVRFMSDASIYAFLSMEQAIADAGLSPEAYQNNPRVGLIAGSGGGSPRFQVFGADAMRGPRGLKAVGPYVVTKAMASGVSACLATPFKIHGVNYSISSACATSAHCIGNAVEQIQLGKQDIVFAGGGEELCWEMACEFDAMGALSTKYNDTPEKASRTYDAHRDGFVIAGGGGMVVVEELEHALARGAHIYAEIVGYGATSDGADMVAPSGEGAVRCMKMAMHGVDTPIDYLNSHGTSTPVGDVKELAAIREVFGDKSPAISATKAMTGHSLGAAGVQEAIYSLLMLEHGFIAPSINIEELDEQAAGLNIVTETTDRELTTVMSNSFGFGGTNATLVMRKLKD
Please respond with reported IC50 for every item in the list.

q: State its IC50: CCCCCCCCC(C)C1(C)SC(O)=C(C)C1=O (stereo not drawn)
a: > 1000 µM

q: State its IC50: CC1=C(O)C(C)(Cc2cccc(C)c2)SC1=O (stereo not drawn)
a: > 1000 µM

q: State its IC50: CCCCCCCCCCCCCC1(C)SC(O)=C(C)C1=O (stereo not drawn)
a: > 100 µM

q: State its IC50: CC1=C(O)C(C)(Cc2ccc(Cl)cc2)SC1=O (stereo not drawn)
a: > 1000 µM

q: State its IC50: CC1=C(O)C(C)(Cc2ccc(C(C)(C)C)cc2)SC1=O (stereo not drawn)
a: > 1000 µM

q: State its IC50: CC1=C(O)C(C)(Cc2ccc(F)cc2)SC1=O (stereo not drawn)
a: > 1000 µM

q: State its IC50: COc1cccc(CC2(C)SC(O)=C(C)C2=O)c1 (stereo not drawn)
a: > 1000 µM

q: State its IC50: COc1ccc(CC2(C)SC(O)=C(C)C2=O)cc1 (stereo not drawn)
a: > 1000 µM

q: State its IC50: CCCCCCCCCCCC1(C)SC(O)=C(C)C1=O (stereo not drawn)
a: > 1000 µM

q: State its IC50: CC1=C(O)C(C)(Cc2c(Cl)cccc2Cl)SC1=O (stereo not drawn)
a: > 1000 µM

q: State its IC50: CCCCCCCCCCCCCCC1(C)SC(O)=C(C)C1=O (stereo not drawn)
a: > 100 µM

q: State its IC50: CC1=C(O)C(C)(Cc2ccccc2C)SC1=O (stereo not drawn)
a: > 1000 µM

q: State its IC50: CCCCCCCCCCC(C)C1(C)SC(O)=C(C)C1=O (stereo not drawn)
a: > 1000 µM

---

Please respond with reported pIC50 for every item in the list.
- target.system: 3-oxoacyl-[acyl-carrier-protein] synthase 3 (Escherichia coli)
- Sequence (C3TDZ2 whole entry): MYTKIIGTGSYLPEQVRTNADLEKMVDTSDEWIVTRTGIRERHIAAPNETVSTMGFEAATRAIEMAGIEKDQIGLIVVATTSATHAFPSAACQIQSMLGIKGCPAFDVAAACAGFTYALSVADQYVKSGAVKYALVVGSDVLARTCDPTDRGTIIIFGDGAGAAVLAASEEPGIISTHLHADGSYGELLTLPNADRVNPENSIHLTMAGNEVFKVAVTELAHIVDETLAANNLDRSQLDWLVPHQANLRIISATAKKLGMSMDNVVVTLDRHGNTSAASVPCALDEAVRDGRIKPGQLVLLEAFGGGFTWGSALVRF
pIC50: −log10 of the molar value.

q: State its pIC50: CC1=C(O)C(C)(Cc2ccc(Cl)cc2)SC1=O (configuration not stated)
a: < 3.00

q: State its pIC50: CC1=C(O)C(C)(Cc2c(C)cc(C)cc2C)SC1=O (configuration not stated)
a: < 3.00

q: State its pIC50: COc1ccccc1CC1(C)SC(O)=C(C)C1=O (configuration not stated)
a: < 3.00

q: State its pIC50: CCCCCCCC1(C)SC(O)=C(C)C1=O (configuration not stated)
a: < 3.00

q: State its pIC50: CC1=C(O)C(C)(Cc2cccc(C(F)(F)F)c2)SC1=O (configuration not stated)
a: < 3.00

q: State its pIC50: CCCCCCCCCCCCC1(C)SC(O)=C(C)C1=O (configuration not stated)
a: 4.00

q: State its pIC50: CC/C=C/CC1(C)SC(O)=C(C)C1=O (configuration not stated)
a: < 3.00

q: State its pIC50: CC1=C(O)C(C)(Cc2ccc(C)cc2)SC1=O (configuration not stated)
a: < 3.00

q: State its pIC50: CC1=C(O)C(C)(Cc2ccc(C(C)(C)C)cc2)SC1=O (configuration not stated)
a: < 3.00

q: State its pIC50: CC(C)=CCC/C(C)=C/CC/C(C)=C/CC1(C)SC(O)=C(C)C1=O (configuration not stated)
a: < 4.00

q: State its pIC50: CC1=C(O)C(C)(CC2CCC2)SC1=O (configuration not stated)
a: < 3.00

q: State its pIC50: C=CCCCCCCC1(C)SC(=O)C(C)=C1O (configuration not stated)
a: < 3.00

q: State its pIC50: CC1=C(O)C(C)(Cc2ccccc2Cl)SC1=O (configuration not stated)
a: < 3.00

q: State its pIC50: CC1=C(O)C(C)(Cc2c(Cl)cccc2Cl)SC1=O (configuration not stated)
a: < 3.00

q: State its pIC50: CC1=C(O)C(C)(Cc2ccc3ccccc3c2)SC1=O (configuration not stated)
a: < 3.00

q: State its pIC50: CC1=C(O)C(C)(CC2CC2)SC1=O (configuration not stated)
a: < 4.00

q: State its pIC50: CC1=C(O)C(C)(CC2CCCCC2)SC1=O (configuration not stated)
a: < 3.00

q: State its pIC50: CC(C)=CCC/C(C)=C/CC1(C)SC(O)=C(C)C1=O (configuration not stated)
a: 4.00

q: State its pIC50: CC1=C(O)C(C)(CCCc2ccccc2)SC1=O (configuration not stated)
a: < 3.00

q: State its pIC50: CC1=C(O)C(C)(Cc2ccc(F)cc2)SC1=O (configuration not stated)
a: < 3.00

q: State its pIC50: CC[C@H](C)CC1(C)SC(O)=C(C)C1=O (some centres not stated)
a: < 4.00

q: State its pIC50: C=CCCC1(C)SC(=O)C(C)=C1O (configuration not stated)
a: < 3.00

q: State its pIC50: COc1cccc(CC2(C)SC(O)=C(C)C2=O)c1 (configuration not stated)
a: < 3.00

q: State its pIC50: CCCCCCCCCCCC1(C)SC(O)=C(C)C1=O (configuration not stated)
a: < 4.00

q: State its pIC50: CC1=C(O)C(C)(Cc2ccccc2C)SC1=O (configuration not stated)
a: < 3.00

q: State its pIC50: CC1=C(O)SC(C)(C(C)c2ccccc2)C1=O (configuration not stated)
a: < 3.00

q: State its pIC50: CCCCCCCCCCC1(C)SC(O)=C(C)C1=O (configuration not stated)
a: 4.00

q: State its pIC50: CC1=C(O)C(C)(Cc2ccc([N+](=O)[O-])cc2)SC1=O (configuration not stated)
a: < 3.00

q: State its pIC50: CC1=C(O)C(C)(Cc2cc(C)ccc2C)SC1=O (configuration not stated)
a: < 3.00

q: State its pIC50: CCCCCCCCC1(C)SC(O)=C(C)C1=O (configuration not stated)
a: < 4.00

q: State its pIC50: CCCCCCCCCCCCCC1(C)SC(O)=C(C)C1=O (configuration not stated)
a: 4.00

q: State its pIC50: CCCCC(CC)CC1(C)SC(O)=C(C)C1=O (configuration not stated)
a: < 3.00

q: State its pIC50: COc1cc(CC2(C)SC(O)=C(C)C2=O)cc(OC)c1 (configuration not stated)
a: < 3.00

q: State its pIC50: CC1=C(O)C(C)(Cc2cccc(Cl)c2)SC1=O (configuration not stated)
a: < 3.00

q: State its pIC50: CCCCCCCCCCCCCCC1(C)SC(O)=C(C)C1=O (configuration not stated)
a: 4.00

q: State its pIC50: CC1=C(O)SC(C)(CCC(C)C)C1=O (configuration not stated)
a: < 3.00

q: State its pIC50: CC1=C(O)C(C)(CCc2ccccc2)SC1=O (configuration not stated)
a: < 3.00

---

- target.system: Mycobacterial beta-ketoacyl-[acyl-carrier-protein] synthase III (Mycobacterium tuberculosis)
- Sequence (P9WNG3 whole entry): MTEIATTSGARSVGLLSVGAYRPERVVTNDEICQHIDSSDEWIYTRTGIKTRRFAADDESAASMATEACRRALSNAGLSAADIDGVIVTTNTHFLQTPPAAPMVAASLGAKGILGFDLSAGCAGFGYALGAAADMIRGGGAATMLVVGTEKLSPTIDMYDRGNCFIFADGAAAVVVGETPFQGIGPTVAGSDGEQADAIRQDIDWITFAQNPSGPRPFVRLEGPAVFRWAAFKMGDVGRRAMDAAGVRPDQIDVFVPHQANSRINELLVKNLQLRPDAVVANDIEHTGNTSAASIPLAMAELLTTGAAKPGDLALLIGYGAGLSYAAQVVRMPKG
pIC50: −log10 of the molar value.
Please respond with reported pIC50 for every item in the list.

q: State its pIC50: COc1cc(CC2(C)SC(O)=C(C)C2=O)cc(OC)c1 (configuration not stated)
a: < 3.00

q: State its pIC50: CC1=C(O)C(C)(CC2CCCCC2)SC1=O (configuration not stated)
a: < 3.00

q: State its pIC50: CCCCCCCC1(C)SC(O)=C(C)C1=O (configuration not stated)
a: < 3.00

q: State its pIC50: CC1=C(O)C(C)(Cc2ccc(Cl)cc2)SC1=O (configuration not stated)
a: < 4.00

q: State its pIC50: CCCCC(CC)CC1(C)SC(O)=C(C)C1=O (configuration not stated)
a: < 3.00

q: State its pIC50: CCCCCC(C)C1(C)SC(O)=C(C)C1=O (configuration not stated)
a: < 3.00

q: State its pIC50: CCCCCCCCCCC(C)C1(C)SC(O)=C(C)C1=O (configuration not stated)
a: 4.19

The reported numbers originate from ChEMBL document CHEMBL1148604.
